# Assay overview: In vitro cytotoxicity was determined
# Test parameters: read-out: LD50 (the source's name)
For each of the molecules below, state its CC50.

Problem: Tell me the measured CC50 of Cc1[nH]c(/C=C2\C(=O)Nc3ccc(F)cc32)c(C)c1C(=O)NCCn1cncn1 , please.
Solution: > 50 µM

Could you tell me CC50 for each of these molecules? They are listed below.
1. CCN(CC)CCNC(=O)c1c(C)[nH]c(/C=C2\C(=O)Nc3ccc(F)cc32)c1C [SUNITINIB]
2. CCN(CC)CCNC(=O)c1c(C)[nH]c(/C=C2\C(=O)Nc3ccc(Cl)cc32)c1C [SU-11652]
3. Cc1[nH]c(/C=C2\C(=O)Nc3ccccc32)c(C)c1CCCN1CCN(C)CC1
4. Cc1[nH]c(/C=C2\C(=O)Nc3ccccc32)c(C)c1CCC(=O)O [ORANTINIB]
5. Cc1cc(C)c(/C=C2\C(=O)Nc3ccccc32)[nH]1 [SEMAXANIB]
6. Cc1[nH]c(/C=C2\C(=O)Nc3ccc(F)cc32)c(C)c1C(=O)NCCN1CCCC1 [TOCERANIB]
7. Cc1[nH]c(/C=C2\C(=O)Nc3ccc(F)cc32)c(C)c1C(=O)NCc1ccncc1
8. CCN(CC)CCNC(=O)c1c(C)[nH]c(/C=C2\C(=O)Nc3ccccc32)c1C

Solution:
48.9 µM
15.6 µM
> 50 µM
> 50 µM
> 50 µM
49 µM
> 50 µM
> 50 µM

---

# Assay overview: Solubility in 20 mM buffered solution after shaking for 24 hr at 22 degree celsius at pH 6
# Type: physicochemical
Metric name: log10 of solubility thermodynamic at 24 h (log10 of the value in µg/mL)
Scale: decimal log of solubility thermodynamic at 24 h, solubility thermodynamic at 24 h in µg/mL.

As a guide, the following entries are already answered.
Problem: Looking for the measured log10 of solubility thermodynamic at 24 h of Cc1[nH]c(/C=C2\C(=O)Nc3ccc(F)cc32)c(C)c1C(=O)NCCN(C)C , can you help?
Solution: 1.88

Problem: Suppose we examine the molecule Cc1[nH]c(/C=C2\C(=O)Nc3ccc(F)cc32)c(C)c1C(=O)NCCN1CCOCC1 ; what log10 of solubility thermodynamic at 24 h value has been reported?
Solution: -0.52

Problem: So what does the record say about log10 of solubility thermodynamic at 24 h for CCN(CC)CCNC(=O)c1c(C)[nH]c(/C=C2\C(=O)Nc3ccc(F)cc32)c1C [SUNITINIB] ?
Solution: 2.56

Report log10 of solubility thermodynamic at 24 h for each item below.
1. CCN(CC)CCNC(=O)c1c(C)[nH]c(/C=C2\C(=O)Nc3ccccc32)c1C
2. CCN(CC)CCNC(=O)c1c(C)[nH]c(/C=C2\C(=O)Nc3ccc(Br)cc32)c1C
3. Cc1[nH]c(/C=C2\C(=O)Nc3ccc(F)cc32)c(C)c1C(=O)NCCn1cncn1
4. CCN(CC)CCNC(=O)c1c(C)[nH]c(/C=C2\C(=O)Nc3ccc(Cl)cc32)c1C [SU-11652]
5. Cc1[nH]c(/C=C2\C(=O)Nc3ccc(F)cc32)c(C)c1C(=O)NCCN1CCCC1 [TOCERANIB]

Solution:
[2.71, 2.00, 0.78, 2.27, 0.95]

---

# Assay overview: Solubility in 20 mM buffered solution after shaking for 24 hr at 22 degree celsius at pH 2
# Type: physicochemical
Metric name: solubility thermodynamic at 24 h

Examples with answers:
Problem: Entry under review: Cc1[nH]c(/C=C2\C(=O)Nc3ccc(F)cc32)c(C)c1C(=O)NCC1CCN(C)CC1 . Reported solubility thermodynamic at 24 h?
Solution: > 250 µg/mL

Problem: Which measured solubility thermodynamic at 24 h value corresponds to Cc1[nH]c(/C=C2\C(=O)Nc3ccc(F)cc32)c(C)c1C(=O)NCc1ccncc1 ?
Solution: 486 µg/mL

Problem: Endpoint output: solubility thermodynamic at 24 h of CCN(CC)CCNC(=O)c1c(C)[nH]c(/C=C2\C(=O)Nc3ccc(F)cc32)c1C . Value?
Solution: 2580 µg/mL

Problem: Looking for the measured solubility thermodynamic at 24 h of Cc1[nH]c(/C=C2\C(=O)Nc3ccc(F)cc32)c(C)c1C(=O)NCCn1cncn1 , can you help?
Solution: 2 µg/mL

Problem: Could you share which solubility thermodynamic at 24 h value was measured for Cc1[nH]c(/C=C2\C(=O)Nc3ccc(F)cc32)c(C)c1C(=O)NCCN(C)C ?
Solution: 3010 µg/mL

Provide reported solubility thermodynamic at 24 h for each item, in the same order as listed.
1. Cc1[nH]c(/C=C2\C(=O)Nc3ccccc32)c(C)c1CCC(=O)O [ORANTINIB]
2. CCN(CC)CCNC(=O)c1c(C)[nH]c(/C=C2\C(=O)Nc3ccc(Br)cc32)c1C
3. CCN(CC)CCNC(=O)c1c(C)[nH]c(/C=C2\C(=O)Nc3ccccc32)c1C
4. CCN(CC)CCNC(=O)c1c(C)[nH]c(/C=C2\C(=O)Nc3ccc(Cl)cc32)c1C
5. Cc1[nH]c(/C=C2\C(=O)Nc3ccc(F)cc32)c(C)c1C(=O)NCCN1CCCC1
6. Cc1cc(C)c(/C=C2\C(=O)Nc3ccccc32)[nH]1
7. Cc1[nH]c(/C=C2\C(=O)Nc3ccc(F)cc32)c(C)c1C(=O)NCCN1CCOCC1

Solution:
["< 5 µg/mL", "1300 µg/mL", "3020 µg/mL", "3260 µg/mL", "3320 µg/mL", "< 1 µg/mL", "2940 µg/mL"]

---

Let's go through some log10 IC50 measurements on Vascular endothelial growth factor receptor 2 (Homo sapiens, UniProt P35968) together.
Sequence (P35968 whole entry): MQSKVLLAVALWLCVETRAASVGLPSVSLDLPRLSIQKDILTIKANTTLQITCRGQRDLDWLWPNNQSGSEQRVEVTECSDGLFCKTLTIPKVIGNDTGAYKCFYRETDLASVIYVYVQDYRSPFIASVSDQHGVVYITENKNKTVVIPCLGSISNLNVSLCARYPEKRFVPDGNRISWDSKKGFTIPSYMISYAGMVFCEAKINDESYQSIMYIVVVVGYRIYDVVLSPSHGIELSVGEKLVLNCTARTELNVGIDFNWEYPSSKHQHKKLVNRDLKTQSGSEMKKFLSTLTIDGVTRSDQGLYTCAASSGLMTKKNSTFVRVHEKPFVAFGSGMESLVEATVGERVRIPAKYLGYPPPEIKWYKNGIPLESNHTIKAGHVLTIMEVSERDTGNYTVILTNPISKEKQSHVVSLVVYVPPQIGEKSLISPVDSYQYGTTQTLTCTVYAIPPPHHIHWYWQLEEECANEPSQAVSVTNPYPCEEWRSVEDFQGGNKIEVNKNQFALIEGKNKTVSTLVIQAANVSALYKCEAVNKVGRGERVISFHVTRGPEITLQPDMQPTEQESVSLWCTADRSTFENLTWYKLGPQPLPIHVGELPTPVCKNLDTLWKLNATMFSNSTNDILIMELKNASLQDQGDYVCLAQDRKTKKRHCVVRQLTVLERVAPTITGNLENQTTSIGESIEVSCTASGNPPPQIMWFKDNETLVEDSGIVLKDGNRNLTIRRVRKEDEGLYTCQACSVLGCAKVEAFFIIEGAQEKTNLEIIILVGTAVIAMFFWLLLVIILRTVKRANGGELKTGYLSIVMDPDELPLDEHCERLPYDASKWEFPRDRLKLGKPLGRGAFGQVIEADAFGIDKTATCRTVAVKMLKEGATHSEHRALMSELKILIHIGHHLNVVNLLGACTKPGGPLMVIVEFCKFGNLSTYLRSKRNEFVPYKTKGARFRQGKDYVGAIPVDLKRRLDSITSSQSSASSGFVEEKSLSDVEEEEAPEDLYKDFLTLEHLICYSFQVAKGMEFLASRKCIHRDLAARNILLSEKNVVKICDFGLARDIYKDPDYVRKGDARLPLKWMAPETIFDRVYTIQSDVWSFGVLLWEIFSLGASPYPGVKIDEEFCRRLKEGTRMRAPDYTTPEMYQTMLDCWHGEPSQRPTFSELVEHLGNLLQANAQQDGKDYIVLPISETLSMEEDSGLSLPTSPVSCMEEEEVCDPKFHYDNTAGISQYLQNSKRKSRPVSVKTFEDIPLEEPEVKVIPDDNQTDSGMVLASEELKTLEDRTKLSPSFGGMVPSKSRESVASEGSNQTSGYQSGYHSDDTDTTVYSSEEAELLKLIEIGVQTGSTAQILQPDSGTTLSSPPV
Log10 applied to IC50; unit prior to transform: µM.

See these solved cases before continuing.
Problem: Which log10 IC50 is reported for this molecule? Cc1[nH]c(/C=C2\C(=O)Nc3ccc(F)cc32)c(C)c1C(=O)NCCN1CCOCC1
Solution: -1.05

Problem: Which log10 IC50 reading was recorded for the molecule Cc1[nH]c(/C=C2\C(=O)Nc3ccc(F)cc32)c(C)c1C(=O)NCCN1CCCC1 ?
Solution: -1.22

Problem: # get_value(readout='log10 IC50', item= CCN(CC)CCNC(=O)c1c(C)[nH]c(/C=C2\C(=O)Nc3ccccc32)c1C )
Solution: -1.30

Problem: Fill blank: measured log10 IC50 of the molecule Cc1[nH]c(/C=C2\C(=O)Nc3ccc(F)cc32)c(C)c1C(=O)NCCN(C)C is ____.
Solution: -1.10

Problem: What does the data say about its log10 IC50? Entry: CCN(CC)CCNC(=O)c1c(C)[nH]c(/C=C2\C(=O)Nc3ccc(Br)cc32)c1C
Solution: -1.49

Problem: Which value of log10 IC50 has been reported for Cc1[nH]c(/C=C2\C(=O)Nc3ccc(F)cc32)c(C)c1C(=O)NCC1CCN(C)CC1 in the records?
Solution: -1.60

Problem: Give its log10 IC50 value. Item: CCN(CC)CCNC(=O)c1c(C)[nH]c(/C=C2\C(=O)Nc3ccc(Cl)cc32)c1C
Solution: -1.57

Problem: I would be grateful if you could share the reported log10 IC50 for Cc1[nH]c(/C=C2\C(=O)Nc3ccccc32)c(C)c1CCCN1CCN(C)CC1 .
Solution: -0.52

Would you kindly look at the next entry?
Problem: If you can, please state the reported log10 IC50 value of Cc1[nH]c(/C=C2\C(=O)Nc3ccc(F)cc32)c(C)c1C(=O)NCCn1cncn1 .
Solution: -1.07

---

Here's a batch of compounds along with measured IC50 for Fibroblast growth factor receptor 1 (Homo sapiens, UniProt P11362).

Consider the reported IC50 for these compounds:
Problem: Kindly state the measured IC50 obtained for Cc1[nH]c(/C=C2\C(=O)Nc3ccc(F)cc32)c(C)c1C(=O)NCc1ccncc1 with Fibroblast growth factor receptor 1 (Homo sapiens, UniProt P11362).
Sequence (P11362 whole entry): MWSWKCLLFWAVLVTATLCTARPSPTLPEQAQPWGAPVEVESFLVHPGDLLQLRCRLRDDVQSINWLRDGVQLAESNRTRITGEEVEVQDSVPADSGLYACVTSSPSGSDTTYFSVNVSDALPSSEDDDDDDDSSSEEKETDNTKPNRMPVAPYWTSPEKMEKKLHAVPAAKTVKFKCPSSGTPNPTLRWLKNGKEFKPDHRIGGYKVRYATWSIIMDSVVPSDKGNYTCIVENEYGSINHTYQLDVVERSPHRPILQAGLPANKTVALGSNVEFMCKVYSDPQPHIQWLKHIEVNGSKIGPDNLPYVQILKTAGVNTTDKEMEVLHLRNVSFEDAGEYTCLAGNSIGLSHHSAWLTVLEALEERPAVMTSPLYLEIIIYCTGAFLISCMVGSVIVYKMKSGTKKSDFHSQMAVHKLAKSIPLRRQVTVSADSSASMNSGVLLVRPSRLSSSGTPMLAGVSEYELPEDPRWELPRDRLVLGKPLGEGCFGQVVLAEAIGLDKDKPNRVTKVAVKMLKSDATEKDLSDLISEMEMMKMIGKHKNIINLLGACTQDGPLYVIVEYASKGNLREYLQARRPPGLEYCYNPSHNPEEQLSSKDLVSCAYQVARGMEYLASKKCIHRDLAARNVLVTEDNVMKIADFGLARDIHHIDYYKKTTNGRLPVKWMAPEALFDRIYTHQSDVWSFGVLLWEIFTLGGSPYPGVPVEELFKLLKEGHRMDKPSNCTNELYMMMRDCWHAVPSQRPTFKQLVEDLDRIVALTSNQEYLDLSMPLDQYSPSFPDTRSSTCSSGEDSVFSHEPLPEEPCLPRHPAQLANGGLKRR
Solution: 3100 nM

Problem: Test system Fibroblast growth factor receptor 1 (Homo sapiens, UniProt P11362); read-out IC50; what value for Cc1[nH]c(/C=C2\C(=O)Nc3ccc(F)cc32)c(C)c1C(=O)NCCN1CCCC1 ?
Solution: 3900 nM

Give me IC50 for each of these compounds, listed below.
1. Cc1[nH]c(/C=C2\C(=O)Nc3ccc(F)cc32)c(C)c1C(=O)NCC1CCN(C)CC1
2. Cc1[nH]c(/C=C2\C(=O)Nc3ccccc32)c(C)c1CCCN1CCN(C)CC1
3. Cc1[nH]c(/C=C2\C(=O)Nc3ccc(F)cc32)c(C)c1C(=O)NCCN(C)C
4. CCN(CC)CCNC(=O)c1c(C)[nH]c(/C=C2\C(=O)Nc3ccccc32)c1C

Solution:
200 nM
4200 nM
1600 nM
880 nM

---

# Study target: Epidermal growth factor receptor (Homo sapiens, UniProt P00533)
# Sequence (P00533 whole entry): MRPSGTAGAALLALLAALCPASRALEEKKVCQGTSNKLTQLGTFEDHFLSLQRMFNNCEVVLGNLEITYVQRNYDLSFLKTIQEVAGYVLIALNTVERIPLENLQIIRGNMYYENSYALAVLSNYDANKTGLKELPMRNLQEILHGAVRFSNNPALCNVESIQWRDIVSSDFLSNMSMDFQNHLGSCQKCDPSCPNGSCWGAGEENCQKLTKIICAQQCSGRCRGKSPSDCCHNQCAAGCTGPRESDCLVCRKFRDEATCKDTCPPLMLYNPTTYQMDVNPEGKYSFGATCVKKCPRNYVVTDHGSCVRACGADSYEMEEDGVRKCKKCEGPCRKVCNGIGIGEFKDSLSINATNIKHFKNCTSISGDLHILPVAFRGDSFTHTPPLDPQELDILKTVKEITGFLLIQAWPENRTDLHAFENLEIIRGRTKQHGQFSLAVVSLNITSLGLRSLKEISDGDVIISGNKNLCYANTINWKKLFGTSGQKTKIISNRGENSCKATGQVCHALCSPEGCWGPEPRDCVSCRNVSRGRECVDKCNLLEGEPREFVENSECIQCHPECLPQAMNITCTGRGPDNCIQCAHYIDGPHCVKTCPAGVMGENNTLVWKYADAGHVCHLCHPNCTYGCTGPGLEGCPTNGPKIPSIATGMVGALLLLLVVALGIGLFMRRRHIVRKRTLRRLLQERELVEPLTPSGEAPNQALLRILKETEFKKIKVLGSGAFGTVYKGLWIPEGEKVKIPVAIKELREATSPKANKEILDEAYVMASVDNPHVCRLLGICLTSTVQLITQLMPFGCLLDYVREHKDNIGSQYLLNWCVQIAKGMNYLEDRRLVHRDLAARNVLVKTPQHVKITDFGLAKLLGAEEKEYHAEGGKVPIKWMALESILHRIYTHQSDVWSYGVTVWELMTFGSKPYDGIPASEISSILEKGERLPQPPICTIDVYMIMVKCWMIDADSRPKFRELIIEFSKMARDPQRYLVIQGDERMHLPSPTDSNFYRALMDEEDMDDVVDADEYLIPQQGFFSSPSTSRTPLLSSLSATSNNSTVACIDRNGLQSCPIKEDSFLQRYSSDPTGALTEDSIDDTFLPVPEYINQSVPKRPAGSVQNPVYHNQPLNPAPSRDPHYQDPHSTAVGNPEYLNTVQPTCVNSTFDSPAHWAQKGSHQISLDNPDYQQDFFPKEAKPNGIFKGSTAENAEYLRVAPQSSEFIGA
pIC50: −log10 of the molar value.
Record form. Attribute: pIC50. Fill in for each entry.

Problem: Reported pIC50 for Cc1[nH]c(/C=C2\C(=O)Nc3ccc(F)cc32)c(C)c1C(=O)NCCn1cncn1 : what is it?
Solution: < 4.70

Report pIC50 for each item below.
1. Cc1[nH]c(/C=C2\C(=O)Nc3ccc(F)cc32)c(C)c1C(=O)NCCN1CCCC1
2. CCN(CC)CCNC(=O)c1c(C)[nH]c(/C=C2\C(=O)Nc3ccc(Br)cc32)c1C
3. Cc1[nH]c(/C=C2\C(=O)Nc3ccc(F)cc32)c(C)c1C(=O)NCc1ccncc1
4. CCN(CC)CCNC(=O)c1c(C)[nH]c(/C=C2\C(=O)Nc3ccc(Cl)cc32)c1C

Solution:
1: < 4.70; 2: 5.00; 3: < 4.70; 4: < 4.70
